Where these numbers come from: PubChem BioAssay (NCI)

System: BT-549 breast
Experiment: NCI tumour cell line growth inhibition, 48 h
MEASUREMENT KIND: TGI

INSERT INTO measurements (molecule, experimental_value) VALUES
  ('O=[N+]([O-])c1cc([N+](=O)[O-])c(NN=C(c2ccc(O)cc2)c2ccc(O)cc2)cc1Cl', '4.46 µM'),
  ('CC(C)(C)[Si](C)(C)OC1(CCc2ccccc2OS(=O)(=O)C(F)(F)F)CCCC=C1COCc1ccccc1 (stereo unspecified)', '> 100 µM');

Okay, now this molecule:
Ask: Find the measured TGI: item "COc1ccccc1-c1cc(=O)c2c(C)cc(C)nc2[nH]1" , target or system BT-549 breast.
Result: > 100 µM
